- TARGET OR TEST SYSTEM: albumin (HSA) (Homo sapiens, UniProt P02768)
- Sequence (P02768 25-609): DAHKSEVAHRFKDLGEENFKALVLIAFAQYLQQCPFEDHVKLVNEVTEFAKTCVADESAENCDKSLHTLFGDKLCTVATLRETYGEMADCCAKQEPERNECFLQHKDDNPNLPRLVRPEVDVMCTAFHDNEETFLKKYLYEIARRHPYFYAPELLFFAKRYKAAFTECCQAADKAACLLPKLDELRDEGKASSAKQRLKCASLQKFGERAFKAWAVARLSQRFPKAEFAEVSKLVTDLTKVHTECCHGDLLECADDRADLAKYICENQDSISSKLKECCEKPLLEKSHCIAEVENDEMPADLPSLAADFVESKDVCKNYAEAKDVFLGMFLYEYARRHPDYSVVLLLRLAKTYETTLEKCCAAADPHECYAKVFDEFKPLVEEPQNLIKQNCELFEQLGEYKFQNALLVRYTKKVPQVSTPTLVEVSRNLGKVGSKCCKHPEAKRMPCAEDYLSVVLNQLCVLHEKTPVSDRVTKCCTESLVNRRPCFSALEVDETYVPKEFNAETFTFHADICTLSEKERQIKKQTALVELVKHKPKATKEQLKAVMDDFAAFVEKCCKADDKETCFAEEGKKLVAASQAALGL
- RUN DESCRIPTION: Binding ability evaluation: dissociation constant from fluorescence change with increasing albumin
- CONDITION PARAMETERS: 100 nM boron-containing compound, 95 vol % PBS buffer and 5 vol % DMSO, stirred 2 hours, fluorescence at 530 nm
pKd: −log10 of the molar value.
QUANTITY NAME: pKd

- O=Cc1ccccc1NCc1ccccc1B(O)O [B1]: 6.73
- O=C(c1ccccc1)c1ccccc1NCc1ccccc1B(O)O [B4]: 5.65
- O=Cc1cc(Br)ccc1NCc1ccccc1B(O)O [B2]: 6.42
- O=Cc1cc2c(cc1NCc1ccccc1B(O)O)OCO2 [B5]: 6.24
- O=Cc1cc2ccccc2cc1NCc1ccccc1B(O)O [B3]: 5.61
